Reported log10(Ki) values for the following molecules.
- target under test: Sodium-dependent noradrenaline transporter (Homo sapiens, UniProt P23975)
- Sequence (P23975 whole entry): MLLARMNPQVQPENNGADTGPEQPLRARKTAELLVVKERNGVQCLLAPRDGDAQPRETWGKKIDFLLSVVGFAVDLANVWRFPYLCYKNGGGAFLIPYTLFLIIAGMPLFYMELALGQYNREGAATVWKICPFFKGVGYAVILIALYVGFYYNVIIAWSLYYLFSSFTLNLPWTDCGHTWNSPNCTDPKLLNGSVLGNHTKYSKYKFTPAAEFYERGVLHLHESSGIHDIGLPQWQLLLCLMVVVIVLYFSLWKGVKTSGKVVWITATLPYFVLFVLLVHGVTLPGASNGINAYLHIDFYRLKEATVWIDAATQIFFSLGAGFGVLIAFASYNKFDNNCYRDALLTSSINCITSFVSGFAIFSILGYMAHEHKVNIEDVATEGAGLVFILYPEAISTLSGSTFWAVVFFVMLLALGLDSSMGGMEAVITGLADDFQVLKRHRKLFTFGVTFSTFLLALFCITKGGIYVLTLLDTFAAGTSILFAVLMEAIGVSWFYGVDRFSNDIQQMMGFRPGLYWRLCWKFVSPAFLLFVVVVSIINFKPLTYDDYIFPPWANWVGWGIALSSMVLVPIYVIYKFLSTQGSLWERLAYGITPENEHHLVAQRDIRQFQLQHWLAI
- test details: DRUGMATRIX: Norepinephrine Transporter radioligand binding (ligand: [125I] RTI-55)
- Assay type: cell membranes, MDCK, Membrane
- condition: Not Active = under 50% inhibition at 10 µM; read-out: Ki
property name: log10(Ki) (log10 of the value in µM)

>  <molecule>
Oc1ccc(/C=C/c2cc(O)cc(O)c2)cc1

>  <target under test>
Sodium-dependent noradrenaline transporter (Homo sapiens, UniProt P23975)

>  <log10(Ki)>
0.36

$$$$
>  <molecule>
CC(N)Cc1c[nH]c2ccc(OCc3cccs3)cc12 (stereo unspecified)

>  <target under test>
Sodium-dependent noradrenaline transporter (Homo sapiens, UniProt P23975)

>  <log10(Ki)>
0.56

$$$$
>  <molecule>
CC(=O)Nc1ccc2c(c1)Cc1ccccc1-2

>  <target under test>
Sodium-dependent noradrenaline transporter (Homo sapiens, UniProt P23975)

>  <log10(Ki)>
0.93

$$$$
>  <molecule>
COc1ccccc1OCCNCC(O)COc1cccc2[nH]c3ccccc3c12 (stereo unspecified)

>  <target under test>
Sodium-dependent noradrenaline transporter (Homo sapiens, UniProt P23975)

>  <log10(Ki)>
-0.27

$$$$
>  <molecule>
CCOC(=O)C1=C(C)NC(C)=C(C(=O)OCC)C1c1ccccc1/C=C/C(=O)OC(C)(C)C

>  <target under test>
Sodium-dependent noradrenaline transporter (Homo sapiens, UniProt P23975)

>  <log10(Ki)>
0.76

$$$$
>  <molecule>
Clc1cc(Cl)c(OCC#CI)cc1Cl

>  <target under test>
Sodium-dependent noradrenaline transporter (Homo sapiens, UniProt P23975)

>  <log10(Ki)>
0.44

$$$$
>  <molecule>
c1ccc2c(c1)Nc1ccccc1S2

>  <target under test>
Sodium-dependent noradrenaline transporter (Homo sapiens, UniProt P23975)

>  <log10(Ki)>
-0.34

$$$$
>  <molecule>
CN(CCOc1ccc(C[C@H](Nc2ccccc2C(=O)c2ccccc2)C(=O)O)cc1)c1ccccn1

>  <target under test>
Sodium-dependent noradrenaline transporter (Homo sapiens, UniProt P23975)

>  <log10(Ki)>
1.60

$$$$
>  <molecule>
CC(C)(c1ccc(O)cc1)c1ccc(O)cc1

>  <target under test>
Sodium-dependent noradrenaline transporter (Homo sapiens, UniProt P23975)

>  <log10(Ki)>
1.22

$$$$
>  <molecule>
CC1(COc2ccc(CC3SC(=O)NC3=O)cc2)CCCCC1 (stereo unspecified)

>  <target under test>
Sodium-dependent noradrenaline transporter (Homo sapiens, UniProt P23975)

>  <log10(Ki)>
0.34

$$$$
>  <molecule>
CC(CN1c2ccccc2Sc2ccccc21)N(C)C (stereo unspecified)

>  <target under test>
Sodium-dependent noradrenaline transporter (Homo sapiens, UniProt P23975)

>  <log10(Ki)>
0.62

$$$$
